Test system: COR-L 105
TEST NAME: relative viability (nuclei count vs DMSO), 5 days (fraction); higher = more cells survive
TEST CONTEXT: first compound 0.05 µM
MEASUREMENT LABEL: relative viability

>>> value_measured("COc1cc2nccc(Oc3ccc(NC(=O)Nc4cc(C)on4)c(Cl)c3)c2cc1OC [Tivozanib] + Cc1nc(Nc2ncc(C(=O)Nc3c(C)cccc3Cl)s2)cc(N2CCN(CCO)CC2)n1 [Dasatinib] (partner 0.075 µM)")
0.467
>>> value_measured("Nc1ccn([C@@H]2O[C@H](CO)[C@@H](O)[C@@H]2O)c(=O)n1 [Cytarabine] + C[C@]1(O)C[C@@H](c2nc(-c3ccc4ccc(-c5ccccc5)nc4c3)c3c(N)nccn32)C1 [Linsitinib] (partner 1 µM)")
0.628
>>> value_measured("Nc1ccn([C@@H]2O[C@H](CO)[C@@H](O)[C@@H]2O)c(=O)n1 [Cytarabine] + Cc1nc(Nc2ncc(C(=O)Nc3c(C)cccc3Cl)s2)cc(N2CCN(CCO)CC2)n1 [Dasatinib] (partner 0.075 µM)")
0.293
>>> value_measured("COc1cc2nccc(Oc3ccc(NC(=O)Nc4cc(C)on4)c(Cl)c3)c2cc1OC [Tivozanib] + Nc1ncn([C@H]2C[C@H](O)[C@@H](CO)O2)c(=O)n1 [Decitabine] (partner 2 µM)")
0.731
>>> value_measured("COc1cc2nccc(Oc3ccc(NC(=O)Nc4cc(C)on4)c(Cl)c3)c2cc1OC [Tivozanib] + O=C(CCCCCCC(=O)Nc1ccccc1)NO [Vorinostat] (partner 1 µM)")
0.801
>>> value_measured("COc1cc2nccc(Oc3ccc(NC(=O)Nc4cc(C)on4)c(Cl)c3)c2cc1OC [Tivozanib] + N=C(N)NC(=N)NCCc1ccccc1 [Phenformin] (partner 250 µM)")
0.558
>>> value_measured("COc1cc2nccc(Oc3ccc(NC(=O)Nc4cc(C)on4)c(Cl)c3)c2cc1OC [Tivozanib] + O=C(c1cc(Cc2n[nH]c(=O)c3ccccc23)ccc1F)N1CCN(C(=O)C2CC2)CC1 [Olaparib] (partner 8 µM)")
0.773
>>> value_measured("COc1cc2nccc(Oc3ccc(NC(=O)Nc4cc(C)on4)c(Cl)c3)c2cc1OC [Tivozanib] + CS(=O)(=O)N1CCN(Cc2cc3nc(-c4cccc5[nH]ncc45)nc(N4CCOCC4)c3s2)CC1 [Pictilisib] (partner 1 µM)")
0.431
>>> value_measured("COc1cc2nccc(Oc3ccc(NC(=O)Nc4cc(C)on4)c(Cl)c3)c2cc1OC [Tivozanib] + CCNC(=O)c1noc(-c2cc(C(C)C)c(O)cc2O)c1-c1ccc(CN2CCOCC2)cc1 [Luminespib] (partner 0.01 µM)")
1.07

====

System: NCI-H460
TEST NAME: relative viability (nuclei count vs DMSO), 5 days (fraction); higher = more cells survive
TEST CONTEXT: first compound 0.1581 µM
MEASUREMENT LABEL: relative viability

>>> value_measured("Nc1ccn([C@@H]2O[C@H](CO)[C@@H](O)[C@@H]2O)c(=O)n1 [Cytarabine] + N=C(N)NC(=N)NCCc1ccccc1 [Phenformin] (partner 250 µM)")
0.0419
>>> value_measured("Nc1ccn([C@@H]2O[C@H](CO)[C@@H](O)[C@@H]2O)c(=O)n1 [Cytarabine] + COc1cccc2cc(-c3nc([C@H]4CC[C@H](C(=O)O)CC4)n4ncnc(N)c34)[nH]c12 [OSI-027] (partner 0.5 µM)")
0.055
>>> value_measured("Nc1ccn([C@@H]2O[C@H](CO)[C@@H](O)[C@@H]2O)c(=O)n1 [Cytarabine] + COc1cc2c(Oc3ccc(NC(=O)C4(C(=O)Nc5ccc(F)cc5)CC4)cc3F)ccnc2cc1OCCCN1CCOCC1 [Foretinib] (partner 0.25 µM)")
0.0445
>>> value_measured("COc1cc2nccc(Oc3ccc(NC(=O)Nc4cc(C)on4)c(Cl)c3)c2cc1OC [Tivozanib] + Cc1cc(Nc2cc(N3CCN(C)CC3)nc(Sc3ccc(NC(=O)C4CC4)cc3)n2)n[nH]1 [Tozasertib] (partner 0.1 µM)")
0.554
